- measured.target: T1, recombinant human PD-L1 expressed with a C-terminal myc-myc-hexahistidine tag (hPD-L1-MMH) (human)
- T1 construct: Monomeric PD-L1 reagent; also called hPD-L1-MMH Monomer
- T1 sequence (chain, as listed by the source limits assumed): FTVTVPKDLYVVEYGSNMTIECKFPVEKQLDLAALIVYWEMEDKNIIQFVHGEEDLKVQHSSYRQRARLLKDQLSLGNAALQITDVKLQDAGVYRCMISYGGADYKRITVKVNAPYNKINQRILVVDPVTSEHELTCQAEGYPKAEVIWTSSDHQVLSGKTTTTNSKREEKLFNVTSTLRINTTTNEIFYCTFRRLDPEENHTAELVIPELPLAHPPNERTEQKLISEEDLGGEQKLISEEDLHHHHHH
- assay.summary: SPR, captured mAb, 25 C
Listing of entries alongside the reported kon.
All answers are understood in M⁻¹ s⁻¹, so give the number only.

H2aM8323N (antibody, mouse IgG2, V domains shown, also called H2M8323N) VH: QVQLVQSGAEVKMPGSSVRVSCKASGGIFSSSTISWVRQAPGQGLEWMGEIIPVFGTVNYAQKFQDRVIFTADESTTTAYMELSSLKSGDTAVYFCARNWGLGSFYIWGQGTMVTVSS VL: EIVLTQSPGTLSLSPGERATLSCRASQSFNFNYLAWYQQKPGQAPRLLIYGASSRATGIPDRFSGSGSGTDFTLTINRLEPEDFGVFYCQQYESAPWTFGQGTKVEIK :: 937000

Problem: Fill in the blank: the reported kon of H2aM8321N (antibody, mouse IgG2, V domains shown, also called H2M8321N) VH: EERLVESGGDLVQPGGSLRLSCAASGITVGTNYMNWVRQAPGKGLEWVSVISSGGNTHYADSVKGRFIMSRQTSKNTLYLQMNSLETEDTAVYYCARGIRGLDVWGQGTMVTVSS VL: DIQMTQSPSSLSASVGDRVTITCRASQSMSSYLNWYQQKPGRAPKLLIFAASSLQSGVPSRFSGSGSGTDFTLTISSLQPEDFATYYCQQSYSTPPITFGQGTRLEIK is ____.
Solution: 103000

Problem: Fill in the blank: the reported kon of H1H9329P (antibody, human IgG1, V domains shown) VH: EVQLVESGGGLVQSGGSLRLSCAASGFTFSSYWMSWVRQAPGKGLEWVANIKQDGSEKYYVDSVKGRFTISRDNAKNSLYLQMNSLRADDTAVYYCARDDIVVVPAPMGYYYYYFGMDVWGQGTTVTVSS VL: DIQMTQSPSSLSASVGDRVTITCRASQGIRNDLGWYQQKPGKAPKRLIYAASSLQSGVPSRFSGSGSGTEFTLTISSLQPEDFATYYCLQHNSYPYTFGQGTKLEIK is ____.
Solution: 1.77e+06

Problem: Fill in the blank: the reported kon of H2aM8314N (antibody, mouse IgG2, V domains shown, also called H2M8314N) VH: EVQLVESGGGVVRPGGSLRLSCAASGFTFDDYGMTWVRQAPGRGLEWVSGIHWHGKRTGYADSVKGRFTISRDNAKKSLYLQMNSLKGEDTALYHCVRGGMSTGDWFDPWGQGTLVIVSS VL: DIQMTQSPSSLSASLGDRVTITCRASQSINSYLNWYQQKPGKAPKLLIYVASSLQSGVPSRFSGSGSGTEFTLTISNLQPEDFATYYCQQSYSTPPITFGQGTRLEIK is ____.
Solution: 925000
